Test system: Escherichia coli ATCC 25922
Assay: MIC, broth microdilution (CLSI), reference strain
Conditions: CAMHB
Numbered stars: 1 amine (or outer) side, 2 acyl side, 3 side chain; on linkers, the order of the positions; unused ones are H or OH. Square brackets hold non-standard residues; d marks the D form. Peptide text beside a SMILES is read from it. * marks the point of attachment. ξ: configuration not given here. X3 = NC[C@H](OC(=O)C(F)(F)F)[C@H](N[*:1])C(=O)[*:2]; Pro(cis-4-CF3) = O=C(O)[C@@H]1C[C@H](C(F)(F)F)CN1; Phe(2-CN) = N#Cc1ccccc1C[C@H](N)C(=O)O; Phe(3-Me) = Cc1cccc(C[C@H](N)C(=O)O)c1; Dab(3S-OH) = NC[C@H](O)[C@H](N)C(=O)O; His(π-Me) = Cn1cncc1C[C@H](N)C(=O)O; 3Pal = N[C@@H](Cc1cccnc1)C(=O)O; ΔZArg = N=C(N)NCC/C=C(\N)C(=O)O; NMeK = CN[C@@H](CCCCN)C(=O)O; dOrn = NCCC[C@@H](N)C(=O)O; Dab = NCC[C@H](N)C(=O)O; NH(CH2)4NH2 = NCCCCN*; ξAze = O=C(O)C1CCN1
metric_name: Ec: MIC Escherichia coli ATCC 25922

compound="C[C@H](NC(=O)[C@@H](NC(=O)[C@@H](N)CCCCN)[C@@H](O)CN)C(=O)NCC(=O)N[C@H](CCCN)C(=O)N1CCC[C@H]1C(=O)N[C@@H](Cc1cccnc1)C(=O)N[C@@H](CCCCN)C(=O)N/C(=C\\CCNC(=N)N)C(=O)O [24.107] (H-K[Dab(3S-OH)]AG[dOrn]P[3Pal]K[ΔZArg]-OH)" value_reported="+ (≤32 μg/mL)"
compound="C[C@H](NC(=O)[C@H](CCN)NC(=O)[C@@H](N)CCCCN)C(=O)NCC(=O)N[C@H](CCCN)C(=O)N1CCC1C(=O)N[C@@H](Cc1cnc[nH]1)C(=O)N[C@@H](CCCCN)C(=O)N/C(=C\\CCNC(=N)N)C(=O)N[C@@H](CCCCN)C(=O)NCCCCN (stereo partly drawn) [14.18] (H-K[Dab]AG[dOrn][ξAze]HK[ΔZArg]K-{NH(CH2)4NH2})" value_reported="− (>32 μg/mL)"
compound="C[C@H](NC(=O)[C@@H](NC(=O)[C@@H](N)CCCCN)[C@@H](O)CN)C(=O)NCC(=O)N[C@H](CCCN)C(=O)N1CCC[C@H]1C(=O)N[C@@H](Cc1cnc[nH]1)C(=O)N[C@@H](CCCCN)C(=O)N/C(=C\\CCNC(=N)N)C(=O)N[C@@H](CCCCN)C(=O)NCCCCN [24.1] (H-K[Dab(3S-OH)]AG[dOrn]PHK[ΔZArg]K-{NH(CH2)4NH2})" value_reported="++ (≤8 μg/mL)"
compound="N=C(N)NCC/C=C(\\NC(=O)[C@H](CCCCN)NC(=O)[C@H](Cc1cnc[nH]1)NC(=O)[C@@H]1CCCN1C(=O)[C@@H](CCCN)NC(=O)CNC(=O)[C@H](CCCNC(=N)N)NC(=O)[C@@H](NC(=O)[C@@H](N)CCCCN)[C@@H](O)CN)C(N)=O [217.1] (H-K[Dab(3S-OH)]RG[dOrn]PHK[ΔZArg]-NH2)" value_reported="++ (≤8 μg/mL)"
compound="CN[C@@H](CCCCN)C(=O)N[C@@H](CCN)C(=O)N[C@@H](C)C(=O)NCC(=O)N[C@H](CCCN)C(=O)N1CCC[C@H]1C(=O)N[C@@H](Cc1cnc[nH]1)C(=O)N[C@@H](CCCCN)C(=O)N/C(=C\\CCNC(=N)N)C(=O)N[C@@H](CCCCN)C(=O)NCCCCN [14.9] (H-[NMeK][Dab]AG[dOrn]PHK[ΔZArg]K-{NH(CH2)4NH2})" value_reported="− (>32 μg/mL)"

Query: Reported Ec: MIC Escherichia coli ATCC 25922 for N=C(N)NCC/C=C(\NC(=O)[C@H](CCCCN)NC(=O)[C@H](Cc1cnc[nH]1)NC(=O)[C@@H]1CCCN1C(=O)[C@@H](CCCN)NC(=O)CNC(=O)[C@@H](NC(=O)[C@@H](NC(=O)[C@@H](N)CCCCN)[C@H](CN)OC(=O)C(F)(F)F)[C@@H](O)CN)C(=O)N[C@@H](CCCCN)C(=O)NCCCCN [32.1] (H-K[X3][Dab(3S-OH)]G[dOrn]PHK[ΔZArg]K-{NH(CH2)4NH2}) : what is it?
Result: + (≤32 μg/mL)

Query: Thanks! And C[C@H](NC(=O)[C@@H](NC(=O)[C@@H](N)CCCCN)[C@@H](O)CN)C(=O)NCC(=O)N[C@H](CCCN)C(=O)N1CCC[C@H]1C(=O)N[C@@H](Cc1ccccc1C#N)C(=O)N[C@@H](CCCCN)C(=O)N/C(=C\CCNC(=N)N)C(=O)O [24.81] (H-K[Dab(3S-OH)]AG[dOrn]P[Phe(2-CN)]K[ΔZArg]-OH) ?
Result: − (>32 μg/mL)

Query: Thanks! And C[C@H](NC(=O)[C@@H](NC(=O)[C@@H](N)CCCCN)[C@@H](O)CN)C(=O)NCC(=O)N[C@H](CCCN)C(=O)N1CCC[C@H]1C(=O)N[C@@H](Cc1cncn1C)C(=O)N[C@@H](CCCCN)C(=O)N/C(=C\CCNC(=N)N)C(=O)N[C@@H](CCCCN)C(=O)NCCCCN [24.14] (H-K[Dab(3S-OH)]AG[dOrn]P[His(π-Me)]K[ΔZArg]K-{NH(CH2)4NH2}) ?
Result: ++ (≤8 μg/mL)

Query: Thanks! And C[C@H](NC(=O)[C@@H](NC(=O)[C@@H](N)CCCCN)[C@@H](O)CN)C(=O)NCC(=O)N[C@H](CCCN)C(=O)N1C[C@@H](C(F)(F)F)C[C@H]1C(=O)N[C@@H](Cc1cnc[nH]1)C(=O)N[C@@H](CCCCN)C(=O)N/C(=C\CCNC(=N)N)C(=O)O [24.143] (H-K[Dab(3S-OH)]AG[dOrn][Pro(cis-4-CF3)]HK[ΔZArg]-OH) ?
Result: + (≤32 μg/mL)

Query: Thanks! And NCCCCNC(=O)[C@H](CCCCN)NC(=O)[C@@H](CCCN)NC(=O)[C@H](CCCCN)NC(=O)[C@H](Cc1cnc[nH]1)NC(=O)[C@@H]1CCCN1C(=O)[C@@H](CCCN)NC(=O)CNC(=O)[C@@H](NC(=O)[C@@H](NC(=O)[C@@H](N)CCCCN)[C@@H](O)CN)[C@@H](O)CN [22.22] (H-K[Dab(3S-OH)][Dab(3S-OH)]G[dOrn]PHK[dOrn]K-{NH(CH2)4NH2}) ?
Result: − (>32 μg/mL)

Query: Thanks! And Cc1cccc(C[C@H](NC(=O)[C@@H]2CCCN2C(=O)[C@@H](CCCN)NC(=O)CNC(=O)[C@H](C)NC(=O)[C@@H](NC(=O)[C@@H](N)CCCCN)[C@@H](O)CN)C(=O)N[C@@H](CCCCN)C(=O)N/C(=C\CCNC(=N)N)C(=O)O)c1 [24.153] (H-K[Dab(3S-OH)]AG[dOrn]P[Phe(3-Me)]K[ΔZArg]-OH) ?
Result: ++ (≤8 μg/mL)

Query: Thanks! And CN[C@@H](CCCCN)C(=O)N[C@H](C(=O)N[C@@H](C)C(=O)NCC(=O)N[C@H](CCCN)C(=O)N1CCC[C@H]1C(=O)N[C@@H](Cc1cnc[nH]1)C(=O)N[C@@H](CCCCN)C(=O)N/C(=C\CCNC(=N)N)C(=O)O)[C@@H](O)CN [24.126] (H-[NMeK][Dab(3S-OH)]AG[dOrn]PHK[ΔZArg]-OH) ?
Result: + (≤32 μg/mL)

The origin of these recorded values is patent US10626144B2.
